// z-score lookup, one value per entry
Experiment Notes: P. aeruginosa biofilm formation inhibitors, primary screen, strain PAO1, LB-PBS medium, absorbance 600 nm (AID 1176); also: test concentration not given here
Conditions: P. aeruginosa PAO1 growth/biofilm, A600, 12 h; higher = more signal
Active and inactive are the calls of the source. No rule for the calls is given here.

Record excerpt, results attached:
Compound | z-score
CO[C@H]1O[C@H](CO)[C@@H](OC(=O)Nc2ccccc2)[C@@H]2OC(=O)[C@@H](Cc3ccccc3)C/C=C/C[C@H](Cc3ccccc3)C(=O)O[C@@H]12 | 0.0126 (inactive)
C=CC[C@]1(C(=O)NCC(O)CO)N=C(c2ccc(OCCCO)cc2)O[C@H]1c1ccccc1CN=[N+]=[N-] (stereo partly drawn) | 1.27 (inactive)
C[C@]1(C(=O)NC2CC2)c2ccccc2C(=O)N(Cc2cc(F)cc(C(F)(F)F)c2)[C@H]1c1ccc(CO)cc1 | -0.646 (inactive)
C=CCC(OC(C)=O)[C@@H]1[C@@H](N(Cc2ccc(-c3ccccc3)cc2)C(=O)Cc2ccc(OC)cc2)c2cc(OCCCO)ccc2N1C(=O)Cc1ccc(OC)cc1 (stereo partly drawn) | 0.186 (inactive)
COCCOC(=O)N1C(=O)[C@@]2(c3cc(C#CCNC(N)=O)ccc31)[C@H](c1ccc(O)cc1)N1[C@H](c3ccccc3)[C@H](c3ccccc3)OC(=O)[C@H]1[C@@H]2C(=O)N1CCc2cc(OC)c(OC)cc2C1 | 0.902 (inactive)
CC[C@@H](O[Si](C#C[Si](C(C)C)(C(C)C)C(C)C)(C(C)C)C(C)C)c1cn([C@H](CO)Cc2ccccc2)nn1 | 0.183 (inactive)

// COc1ccc([Si](C)(C)[C@@H]2[C@@H](CC(=O)N(CCO)Cc3ccccc3)O[C@]3(C(=O)N(Cc4cccc(I)c4)c4ccccc43)[C@H]2C)cc1 : z-score value = 1.51 (inactive)

// COC(=O)C(CC#Cc1ccc2c(c1)[C@]1(C(=O)N2)[C@H](C(=O)N2CCN(c3ncccn3)CC2)[C@H]2C(=O)O[C@H](c3ccccc3)[C@H](c3ccccc3)N2[C@@H]1c1ccc(O)cc1)C(=O)OC : z-score value = 1.67 (inactive)

// CC(C)C[C@H]1NC(=O)CNC(=O)[C@@]23C(=O)N[C@@H](Cc4ccccc4)C2[C@H](C)[C@@]2(C)O[C@H]2C3/C=C/C/C=C\CNC1=O (stereo partly drawn) : z-score value = 1.11 (inactive)

// O=C1OCCC/C=C\[C@H]2OC34C=CCN(Cc5ccccc5)C(=O)[C@H]3N(CCO)C(=O)[C@@H]4C12 (stereo partly drawn) : z-score value = -0.152 (inactive)

// CC(C)C[C@@H]1NC(=O)[C@H]2C[C@@H](C(=O)O)[C@@H](c3cccc(OCCO)c3)N2C1=O : z-score value = 0.202 (inactive)

// COc1cc(CO)cc(I)c1O[C@H]1C=C(C(=O)NCCO)C[C@@H](N(CCN2CCOCC2)C(=O)C2CCCO2)[C@@H]1O (stereo partly drawn) : z-score value = -0.365 (inactive)

// C=C[C@@H](CO)NS(=O)(=O)c1ccc(Br)cc1 : z-score value = 0.193 (inactive)

###

Experiment Notes: FRG1 promoter luciferase signal modulators, primary screen, FRG1 inhibition for FSHD, cell-based, C2C12 myotubes, firefly/Renilla luciferase, luminescence (AID 1084)
Conditions: higher = more signal, called active from +8 up or from −8 down
Kindly return Y if reported z-score is no lower than -0.06; return N if it is lower.

Please review the following examples before continuing.
Compound | Assigned Label
C=C(COC)C(=O)CC[C@H](OC(C)=O)c1ccccc1OCCO | N
COC(=O)[C@@]1(Cc2ccc(OC)cc2)[C@@H]2[C@@H](CC(=O)[C@H]2CC(=O)C(=O)N(C)C)CN1C(=O)c1ccccc1 | N
[N-]=[N+]=Nc1ccccc1C[C@@]1(C(=O)NCc2ccccc2)N=C(c2ccc(OCCCO)cc2)O[C@@H]1c1ccccc1 | N
COC(=O)[C@@]1(Cc2ccc(F)cc2)[C@H]2c3cc(C(=O)N4CCCC4)n(C[C@H](O)CO)c3C[C@H]2CN1C(=O)c1ccccc1 | Y

**Query** Say whether CC1C2C(CCCO)=CC(C3C(=O)N(C(N)=O)C(=O)C23)N1Cc1cccc(OC(F)(F)F)c1 (configuration not stated) shows z-score of -0.06 or more.
**Result** Y

**Query** Say whether CC[C@@H](O[Si](C#C[Si](C(C)C)(C(C)C)C(C)C)(C(C)C)C(C)C)c1cn(Cc2cccc(Cl)c2)nn1 shows z-score of -0.06 or more.
**Result** Y

**Query** Say whether CO[C@H]1O[C@H](CO)[C@@H](OC(=O)Nc2cccc(F)c2)[C@H](OC(=O)Nc2ccc3c(c2)OCO3)[C@@H]1OC(=O)Nc1ccc2c(c1)OCO2 shows z-score of -0.06 or more.
**Result** Y
